- Study target: CaMKIIα W403L hub (Homo sapiens, UniProt Q9UQM7, W403L)
- Sequence (Q9UQM7 345-475 W403L): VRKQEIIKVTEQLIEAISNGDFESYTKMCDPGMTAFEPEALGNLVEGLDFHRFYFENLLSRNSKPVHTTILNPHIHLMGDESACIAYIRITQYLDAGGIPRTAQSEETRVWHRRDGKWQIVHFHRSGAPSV
- Assay procedure: Surface plasmon resonance, immobilized CaMKIIα W403L hub
- Format: binding
Property: pKd
Scale note: pKd = -log10(concentration in M).

### Prompt Which measured pKd value corresponds to O=C(O)Cc1cn2nc(-c3ccc(Cl)cc3)ccc2n1 [PIPA] ?
### Response 5.55

---

- Study target: CaMKIIα 6x hub (Homo sapiens, UniProt Q9UQM7, E355Q/F467M/I414M/I464H/T354N/T412N)
- Sequence (Q9UQM7 345-475 T354N/E355Q/T412N/I414M/I464H/F467M): as the sequence (Q9UQM7 345-475 W403L) above, with T10N, E11Q, L59W, T68N, I70M, I120H, F123M counted along it
- Assay procedure: Intrinsic tryptophan fluorescence assay
- Condition context: pIC50, quenching of intrinsic tryptophan fluorescence, purified CaMKIIα 6x hub
Property: pIC50
Scale note: pIC50 = -log10(concentration in M).

### Prompt Which measured pIC50 value corresponds to `O=C(O)Cc1cn2nc(-c3ccc(Cl)cc3)ccc2n1` ?
### Response 5.30
